Catalogue of EC50 values
# System: HBsAg in HepG2.2.15 cells
# Test description: HBsAg assay: inhibition of HBsAg in HepG2.2.15 cells (chemiluminescence immunoassay of supernatant)
# Type: cell-based, hepatitis B virus
# Run parameters: Hepatitis B virus, HepG2.2.15, 144 h, read-out: sAg EC50, HepG2.2.15 cells, supernatant collected at day 6 after exposure, HBsAg CLIA
Observed property: EC50

Compound	Measured value
c1cnc(-c2ncc(N3C4CCC3c3ccccc34)cn2)nc1 [Example 22]	21000 nM
COC(=O)CC1c2cc(OC)c(OC)cc2CCN1c1cnc(-c2ncccn2)nc1 (stereo not shown) [Example 26]	1200 nM
CCC1c2c(OC)ccc(F)c2CCN1c1ccnc(-c2ncccn2)n1 (stereo not shown) [Example 42]	62 nM
CCC1c2cc(OC)c(OC)cc2CN1c1cnc(C(=O)O)nc1 (stereo not shown) [Example 97]	5000 nM
c1cnc(-c2nccc(N3C4CCC3c3ccccc34)n2)nc1 [Example 82]	9000 nM
CCC1c2cc(OC)c(OC)cc2CN1c1nc(-c2ncccn2)ncc1C1CC1 (stereo not shown) [Example 61]	14 nM
CCC1c2cc(F)c(OC)cc2CCCN1c1ccnc(-c2ncccn2)n1 (stereo not shown) [Example 135]	1000 nM

###

# System: HBsAg in HepG2.2.15 cells
# Test description: HBsAg assay: inhibition of HBsAg in HepG2.2.15 cells (chemiluminescence immunoassay of supernatant)
# Type: cell-based, hepatitis B virus
# Run parameters: read-out: sAg EC50; HepG2.2.15 cells, supernatant collected at day 6 after exposure, HBsAg CLIA
pEC50: −log10 of the molar value.

Molecule	pEC50
CCC1c2cc(F)c(OC)cc2CCN1c1cnc(C(=O)O)nc1 (single isomer, unassigned) [Example 114]	7.24
CCC1c2c(OC)ccc(F)c2CCN1c1ccnc(-c2ncccn2)n1 (single isomer, unassigned) [Example 43]	7.22
CCC1c2cc(F)c(OC)cc2CN1c1cnc(C(=O)O)nc1 (single isomer, unassigned) [Example 100]	6.70
CC1c2ccc(F)c(F)c2CCN1c1ccnc(-c2ncccn2)n1 (single isomer, unassigned) [Example 37]	6.51
CCC1c2cc(F)c(OC)cc2CN1c1nc(-c2ncccn2)ncc1F (single isomer, unassigned) [Example 72]	7.17
CCC1c2cc(F)c(OC)cc2CN1c1ccnc(C(=O)NC)n1 (single isomer, unassigned) [Example 110]	5.52
CCC1c2cc(F)c(OC)cc2CCN1c1cnc(-c2ncccn2)nc1 (single isomer, unassigned) [Example 133]	8.52
CCC1c2cc(OC)c(F)c(F)c2CCN1c1cnc(-c2ncccn2)nc1 (single isomer, unassigned) [Example 30]	6.89
CCC1c2cc(OC)c(OC)cc2CN1c1ccnc(-c2ncccn2)n1 (single isomer, unassigned) [Example 56]	7.92
CCC1c2cc(F)c(OC)cc2CN1c1cnc(-c2ncccn2)nc1 (single isomer, unassigned) [Example 90]	6.59
CCC1c2cc(F)c(F)cc2CN1c1cnc(C(=O)O)nc1 (single isomer, unassigned) [Example 117]	4.82
CCCC1c2ccc(F)c(F)c2CCN1c1ccnc(-c2ncccn2)n1 (single isomer, unassigned) [Example 130]	7.01
CCC1c2cc(OC)c(OC)cc2CN1c1ccnc(-c2ncccn2)n1 (single isomer, unassigned) [Example 57]	7.12
CCC1c2cc(F)c(OC)cc2CCN1c1cnc(C(=O)O)nc1 (single isomer, unassigned) [Example 115]	5.22

Value source: patent US20210251991A1
